# Test system: HCT-15 colon
# test name: NCI-60 one-dose screen, 48 h (100 = growth as untreated, 0 = no growth, -100 = all killed)
# condition info: 10 µM unless noted
The panel holds about 83,000 compounds, 20% with a hit somewhere; the sample as a whole holds those more often.
Rule: growth of 20% or more gives t; anything lower gives f.

{"compound": "O=c1c2sc3ncc(Cl)cc3c2nnn1-c1cccc(Cl)c1", "class": "t"}
{"compound": "Clc1ccc(-c2nc(Br)cn3ccnc23)cc1", "class": "t"}
{"compound": "CC(COC(=O)c1ccccc1)N1CC2CCC(C1)O2 (stereo not drawn)", "class": "t"}
{"compound": "N=C(N)c1ccc(-c2ccc(-c3cc(Cl)cc(Cl)c3)o2)nc1", "class": "f"}
{"compound": "O=C(CSc1ccc(Cl)cc1)Nc1ccc(-c2nc3ccccc3s2)c(Cl)c1", "class": "t"}
{"compound": "O=C(Nc1cccc(Cl)c1)Nc1cc(C(F)(F)F)ccc1Cl", "class": "f"}
{"compound": "CCOC(=O)C1=C(C)NC(SCc2nnc(-c3ccc(Cl)cc3)o2)=NC1c1ccc(Cl)cc1 (stereo not drawn)", "class": "t"}
{"compound": "COc1ccc2nc(C)cc(Nc3ccccc3O)c2c1", "class": "t"}

QUERY: Entry `C/C(=N\NC(=S)N1CCCCC1)c1ccccn1` : is its growth no less than 20%?
RESULT: t

QUERY: Now consider `O=C(O)/C=C(\c1nc2ccc([N+](=O)[O-])cc2[nH]1)c1cc(Cl)ccc1O` and answer again.
RESULT: t

QUERY: Now consider `CCOC(=O)c1c(NC(=O)c2ccccc2)sc2c(O)c(CN(CC)CC)ccc12` and answer again.
RESULT: f

QUERY: Now consider `COc1ccc(/C=C/C(=O)c2ccc(NC(=O)CSc3nnc(-c4ccc(Cl)cc4)n3-c3ccccc3)cc2)cc1` and answer again.
RESULT: t

QUERY: Now consider C#CC[C@@H]1C[C@]2(C)[C@H]3CC[C@@H]4[C@H]5C(C(=C)C)CC[C@]5(C(=O)NCCN(CCN)CCN)CC[C@@]4(C)[C@]3(C)CC[C@H]2C(C)(C)[C@H]1OC(C)=O (stereo partly drawn) and answer again.
RESULT: f

Hey, just so you know, these numbers are from PubChem BioAssay (NCI).
